Test system: M. abscessus (ATCC 19977)
test.method.notes: MIC by broth microdilution, M. abscessus in cation adjusted Mueller Hinton broth
Type: cell-based
condition.context: Mycobacteroides abscessus, ATCC19977, 96 h; ATCC 19977; cation adjusted Mueller Hinton broth without growth supplement; 30° C., 4 days; read-out: MIC M. abscessus MH
Rule for this label: t means MIC is less than 2 µg/mL; f means MIC is at least 2 µg/mL.

# compound, label.class
rows = [
    ("CO[C@H]1/C=C/O[C@@]2(C)Oc3c(C)c(O)c4c(c3C2=O)C2=NC3(CCN(CC(C)C)CC3)NC2=C(NC(=O)/C(C)=C\\C=C\\[C@H](C)[C@H](O)[C@@H](C)[C@@H](O)[C@@H](C)[C@H](OC(=O)N(C)C2CC2)[C@@H]1C)C4=O", "f"),
    ("CO[C@H]1/C=C/O[C@@]2(C)Oc3c(C)c(O)c4c(c3C2=O)C2=NC3(CCN(CC(C)C)CC3)NC2=C(NC(=O)/C(C)=C\\C=C\\[C@H](C)[C@H](O)[C@@H](C)[C@@H](O)[C@@H](C)[C@H](OC(=O)N2CC3(CCN(CC5CCCCC5)CC3)C2)[C@@H]1C)C4=O", "t"),
    ("CO[C@H]1/C=C/O[C@@]2(C)Oc3c(C)c(O)c4c(c3C2=O)C2=NC3(CCN(CC(C)C)CC3)NC2=C(NC(=O)/C(C)=C\\C=C\\[C@H](C)[C@H](O)[C@@H](C)[C@@H](O)[C@@H](C)[C@H](OC(=O)N2CCN(c3ccccn3)CC2)[C@@H]1C)C4=O", "t"),
    ("CO[C@H]1/C=C/O[C@@]2(C)Oc3c(C)c(O)c4c(c3C2=O)C2=NC3(CCN(CC(C)C)CC3)NC2=C(NC(=O)/C(C)=C\\C=C\\[C@H](C)[C@H](O)[C@@H](C)[C@@H](O)[C@@H](C)[C@H](OC(C)=O)[C@@H]1C)C4=O", "f"),
    ("CO[C@H]1/C=C/O[C@@]2(C)Oc3c(C)c(O)c4c(c3C2=O)C2=NC3(CCN(CC(C)C)CC3)NC2=C(NC(=O)/C(C)=C\\C=C\\[C@H](C)[C@H](O)[C@@H](C)[C@@H](O)[C@@H](C)[C@H](OC(=O)N2CCN(CCN3CCOCC3)CC2)[C@@H]1C)C4=O", "t"),
    ("CCCCN1CCN(C(=O)O[C@H]2[C@H](C)[C@H](O)[C@H](C)[C@@H](O)[C@@H](C)/C=C/C=C(/C)C(=O)NC3=C4NC5(CCN(CC(C)C)CC5)N=C4c4c(c(O)c(C)c5c4C(=O)[C@@](C)(O/C=C/[C@H](OC)[C@H]2C)O5)C3=O)CC1", "t"),
]

====

System: M. abscessus (ATCC 19977)
test.method.notes: MIC by broth microdilution, M. abscessus in cation adjusted Mueller Hinton broth
Type: cell-based
condition.context: Mycobacteroides abscessus, ATCC19977, 96 h; ATCC 19977; cation adjusted Mueller Hinton broth without growth supplement; 30° C., 4 days; read-out: MIC M. abscessus MH

# compound, MIC [µg/mL]
rows = [
    ("CO[C@H]1/C=C/O[C@@]2(C)Oc3c(C)c(O)c4c(c3C2=O)C2=NC3(CCN(CC(C)C)CC3)NC2=C(NC(=O)/C(C)=C\\C=C\\[C@H](C)[C@H](O)[C@@H](C)[C@@H](O)[C@@H](C)[C@H](OC(=O)N2CCC(n3ccnc3)CC2)[C@@H]1C)C4=O", 4),
    ("CO[C@H]1/C=C/O[C@@]2(C)Oc3c(C)c(O)c4c(c3C2=O)C2=NC3(CCN(CC(C)C)CC3)NC2=C(NC(=O)/C(C)=C\\C=C\\[C@H](C)[C@H](O)[C@@H](C)[C@@H](O)[C@@H](C)[C@H](OC(=O)N2CCN(CC(C)C)CC2)[C@@H]1C)C4=O", 0.06),
    ("CO[C@H]1/C=C/O[C@@]2(C)Oc3c(C)c(O)c4c(c3C2=O)C2=NC3(CCN(CC(C)C)CC3)NC2=C(NC(=O)/C(C)=C\\C=C\\[C@H](C)[C@H](O)[C@@H](C)[C@@H](O)[C@@H](C)[C@H](OC(=O)N2CCN(CC3CCOCC3)CC2)[C@@H]1C)C4=O", 0.125),
    ("CO[C@H]1/C=C/O[C@@]2(C)Oc3c(C)c(O)c4c(c3C2=O)C2=NC3(CCN(CC(C)C)CC3)NC2=C(NC(=O)/C(C)=C\\C=C\\[C@H](C)[C@H](O)[C@@H](C)[C@@H](O)[C@@H](C)[C@H](OC(=O)N2CCCC3(CCN(C)CC3)C2)[C@@H]1C)C4=O", 1),
]

====

Test system: A. baumannii (HUMC1 strain)
test.method.notes: MIC by broth microdilution, A. baumannii (RPMI + 10% FCS)
Format: cell-based
condition.context: Acinetobacter baumannii; HUMC1 strain; RPMI medium + 10% FCS; 35° C., 20 hours; read-out: MIC A. baumannii
# key: entry, value: MIC

# compound, target.system, MIC
data = [
    ("CO[C@H]1/C=C/O[C@@]2(C)Oc3c(C)c(O)c4c(c3C2=O)C2=NC3(CCN(CC(C)C)CC3)NC2=C(NC(=O)/C(C)=C\\C=C\\[C@H](C)[C@H](O)[C@@H](C)[C@@H](O)[C@@H](C)[C@H](OC(=O)N2CCCN(C3CCCC3)CC2)[C@@H]1C)C4=O", "A. baumannii (HUMC1 strain)", "≤ 0.016 µg/mL"),
    ("CO[C@H]1/C=C/O[C@@]2(C)Oc3c(C)c(O)c4c(c3C2=O)C2=NC3(CCN(CC(C)C)CC3)NC2=C(NC(=O)/C(C)=C\\C=C\\[C@H](C)[C@H](O)[C@@H](C)[C@@H](O)[C@@H](C)[C@H](OC(=O)N2CCN(CC3CC3)CC2)[C@@H]1C)C4=O", "A. baumannii (HUMC1 strain)", "≤ 0.016 µg/mL"),
    ("CO[C@H]1/C=C/O[C@@]2(C)Oc3c(C)c(O)c4c(c3C2=O)C2=NC3(CCN(CC(C)C)CC3)NC2=C(NC(=O)/C(C)=C\\C=C\\[C@H](C)[C@H](O)[C@@H](C)[C@@H](O)[C@@H](C)[C@H](OC(=O)N2CCC3(CCN(CC(C)C)CC3)CC2)[C@@H]1C)C4=O", "A. baumannii (HUMC1 strain)", "0.004 µg/mL"),
    ("CO[C@H]1/C=C/O[C@@]2(C)Oc3c(C)c(O)c4c(c3C2=O)C2=NC3(CCN(CC(C)C)CC3)NC2=C(NC(=O)/C(C)=C\\C=C\\[C@H](C)[C@H](O)[C@@H](C)[C@@H](O)[C@@H](C)[C@H](OC(=O)N2CCN(CCN3CCOCC3)CC2)[C@@H]1C)C4=O", "A. baumannii (HUMC1 strain)", "≤ 0.002 µg/mL"),
    ("CO[C@H]1/C=C/O[C@@]2(C)Oc3c(C)c(O)c4c(c3C2=O)C2=NC3(CCN(CC(C)C)CC3)NC2=C(NC(=O)/C(C)=C\\C=C\\[C@H](C)[C@H](O)[C@@H](C)[C@@H](O)[C@@H](C)[C@H](OC(=O)N2CCN3CCCC3C2)[C@@H]1C)C4=O (stereo partly shown)", "A. baumannii (HUMC1 strain)", "≤ 0.016 µg/mL"),
    ("CO[C@H]1/C=C/O[C@@]2(C)Oc3c(C)c(O)c4c(c3C2=O)C2=NC3(CCN(CC(C)C)CC3)NC2=C(NC(=O)/C(C)=C\\C=C\\[C@H](C)[C@H](O)[C@@H](C)[C@@H](O)[C@@H](C)[C@H](OC(=O)N2CCN(Cc3nccn3C)CC2)[C@@H]1C)C4=O", "A. baumannii (HUMC1 strain)", "≤ 0.016 µg/mL"),
    ("COCCN1CCN(C(=O)O[C@H]2[C@H](C)[C@H](O)[C@H](C)[C@@H](O)[C@@H](C)/C=C/C=C(/C)C(=O)NC3=C4NC5(CCN(CC(C)C)CC5)N=C4c4c(c(O)c(C)c5c4C(=O)[C@@](C)(O/C=C/[C@H](OC)[C@H]2C)O5)C3=O)CC1", "A. baumannii (HUMC1 strain)", "≤ 0.016 µg/mL"),
]

====

Tested on: A. baumannii (HUMC1 strain)
test.method.notes: MIC by broth microdilution, A. baumannii (RPMI + 10% FCS)
Type: cell-based
condition.context: Acinetobacter baumannii; HUMC1 strain; RPMI medium + 10% FCS; 35° C., 20 hours; read-out: MIC A. baumannii

# molecule, output.unit, lt.gt.eq, MIC
rows = [
    ("CO[C@H]1/C=C/O[C@@]2(C)Oc3c(C)c(O)c4c(c3C2=O)C2=NC3(CCN(CC(C)C)CC3)NC2=C(NC(=O)/C(C)=C\\C=C\\[C@H](C)[C@H](O)[C@@H](C)[C@@H](O)[C@@H](C)[C@H](OC(=O)N2CCN(CCOCCO)CC2)[C@@H]1C)C4=O [Compound 44]", "ng/mL", "≤", 16),
    ("CO[C@H]1/C=C/O[C@@]2(C)Oc3c(C)c(O)c4c(c3C2=O)C2=NC3(CCN(CC(C)C)CC3)NC2=C(NC(=O)/C(C)=C\\C=C\\[C@H](C)[C@H](O)[C@@H](C)[C@@H](O)[C@@H](C)[C@H](OC(=O)N2CCC(N(C)C)CC2)[C@@H]1C)C4=O [Compound 3]", "ng/mL", "≤", 2),
    ("CO[C@H]1/C=C/O[C@@]2(C)Oc3c(C)c(O)c4c(c3C2=O)C2=NC3(CCN(CC(C)C)CC3)NC2=C(NC(=O)/C(C)=C\\C=C\\[C@H](C)[C@H](O)[C@@H](C)[C@@H](O)[C@@H](C)[C@H](OC(=O)N2CCN(CCc3ccccc3)CC2)[C@@H]1C)C4=O [Compound 46]", "ng/mL", "=", 250),
    ("CO[C@H]1/C=C/O[C@@]2(C)Oc3c(C)c(O)c4c(c3C2=O)C2=NC3(CCN(CC(C)C)CC3)NC2=C(NC(=O)/C(C)=C\\C=C\\[C@H](C)[C@H](O)[C@@H](C)[C@@H](O)[C@@H](C)[C@H](OC(=O)N(C)C2CC2)[C@@H]1C)C4=O [Compound 82]", "ng/mL", "=", 8),
    ("CO[C@H]1/C=C/O[C@@]2(C)Oc3c(C)c(O)c4c(c3C2=O)C2=NC3(CCN(CC(C)C)CC3)NC2=C(NC(=O)/C(C)=C\\C=C\\[C@H](C)[C@H](O)[C@@H](C)[C@@H](O)[C@@H](C)[C@H](OC(=O)N2CCC(Nc3cccnc3)CC2)[C@@H]1C)C4=O [Compound 5]", "ng/mL", "=", 4),
    ("CO[C@H]1/C=C/O[C@@]2(C)Oc3c(C)c(O)c4c(c3C2=O)C2=NC3(CCN(CC(C)C)CC3)NC2=C(NC(=O)/C(C)=C\\C=C\\[C@H](C)[C@H](O)[C@@H](C)[C@@H](O)[C@@H](C)[C@H](OC(=O)NC2CCN(C(C)C)CC2)[C@@H]1C)C4=O [Compound 76]", "ng/mL", "≤", 1),
    ("CO[C@H]1/C=C/O[C@@]2(C)Oc3c(C)c(O)c4c(c3C2=O)C2=NC3(CCN(CC(C)C)CC3)NC2=C(NC(=O)/C(C)=C\\C=C\\[C@H](C)[C@H](O)[C@@H](C)[C@@H](O)[C@@H](C)[C@H](OC(=O)N2CC3CC2CN3Cc2ccccc2)[C@@H]1C)C4=O [Compound 32]", "ng/mL", "=", 30),
    ("CO[C@H]1/C=C/O[C@@]2(C)Oc3c(C)c(O)c4c(c3C2=O)C2=NC3(CCN(CC(C)C)CC3)NC2=C(NC(=O)/C(C)=C\\C=C\\[C@H](C)[C@H](O)[C@@H](C)[C@@H](O)[C@@H](C)[C@H](OC(=O)N2CCCN(c3ccccn3)CC2)[C@@H]1C)C4=O [Compound 15]", "ng/mL", "=", 8),
    ("CO[C@H]1/C=C/O[C@@]2(C)Oc3c(C)c(O)c4c(c3C2=O)C2=NC3(CCN(CC(C)C)CC3)NC2=C(NC(=O)/C(C)=C\\C=C\\[C@H](C)[C@H](O)[C@@H](C)[C@@H](O)[C@@H](C)[C@H](OC(=O)NC2CCN(CC3CCCCC3)CC2)[C@@H]1C)C4=O [Compound 29]", "ng/mL", "≤", 16),
    ("CO[C@H]1/C=C/O[C@@]2(C)Oc3c(C)c(O)c4c(c3C2=O)C2=NC3(CCN(CC(C)C)CC3)NC2=C(NC(=O)/C(C)=C\\C=C\\[C@H](C)[C@H](O)[C@@H](C)[C@@H](O)[C@@H](C)[C@H](OC(=O)N2CCC3(CCN(CCC(C)C)CC3)CC2)[C@@H]1C)C4=O [Compound 71]", "ng/mL", "=", 8),
    ("CO[C@H]1/C=C/O[C@@]2(C)Oc3c(C)c(O)c4c(c3C2=O)C2=NC3(CCN(CC(C)C)CC3)NC2=C(NC(=O)/C(C)=C\\C=C\\[C@H](C)[C@H](O)[C@@H](C)[C@@H](O)[C@@H](C)[C@H](OC(=O)N2CCN(C)CC2)[C@@H]1C)C4=O [Compound 6]", "ng/mL", "=", 60),
    ("CO[C@H]1/C=C/O[C@@]2(C)Oc3c(C)c(O)c4c(c3C2=O)C2=NC3(CCN(CC(C)C)CC3)NC2=C(NC(=O)/C(C)=C\\C=C\\[C@H](C)[C@H](O)[C@@H](C)[C@@H](O)[C@@H](C)[C@H](OC(=O)N2CCN(CC3CCOCC3)CC2)[C@@H]1C)C4=O [Compound 53]", "ng/mL", "=", 4),
    ("CO[C@H]1/C=C/O[C@@]2(C)Oc3c(C)c(O)c4c(c3C2=O)C2=NC3(CCN(CC(C)C)CC3)NC2=C(NC(=O)/C(C)=C\\C=C\\[C@H](C)[C@H](O)[C@@H](C)[C@@H](O)[C@@H](C)[C@H](OC(=O)N2CCNCC2)[C@@H]1C)C4=O [Compound 51]", "ng/mL", "≤", 1),
    ("CO[C@H]1/C=C/O[C@@]2(C)Oc3c(C)c(O)c4c(c3C2=O)C2=NC3(CCN(CC(C)C)CC3)NC2=C(NC(=O)/C(C)=C\\C=C\\[C@H](C)[C@H](O)[C@@H](C)[C@@H](O)[C@@H](C)[C@H](OC(=O)N2CCN(CC(C)(C)C)CC2)[C@@H]1C)C4=O [Compound 49]", "ng/mL", "=", 1000),
]
